Assay: Toxicity liver stage against HepG2, at 10uM
Assay type: cell-based
Set-up: test concentration 10 uM, cell line HepG2-A16-CD81EGFP
Conditions: human, HepG2-A16-CD81EGFP cells; read-out: INHIBITION
recorded.endpoint: cytotoxicity at 10 µM (%)
State just the number; it will be interpreted in %.

Recorded result, CCOC(=O)C1CCN(Cc2c(O)ccc3oc4c(c23)CCCC4)CC1 , cytotoxicity at 10 µM: -1.2

Given item CCn1nc(C)c2nnn(CC(=O)Nc3ccccc3)c(=O)c21 , the value recorded as its cytotoxicity at 10 µM is 9.02

cytotoxicity at 10 µM in this record for O=C(NC[C@H]1OC[C@@H](NC(=O)c2ccccc2)[C@@H]1O)c1ccncc1 : 2.55

---

Experiment: Toxicity liver stage against HepG2, at 10uM
Format: cell-based
Set-up: test concentration 10 uM, cell line HepG2-A16-CD81EGFP
Conditions: human, HepG2-A16-CD81EGFP cells; read-out: INHIBITION
Parameter: cytotoxicity at 10 µM. Scope: all listed entries.
The reply should be a number in %, with the unit left off.

compound=Cn1cnnc1S(=O)(=O)C1CCN(S(=O)(=O)C2CC2)CC1 test_value=-9.99
compound=CC(C)(CCS(C)(=O)=O)CNc1ccc2ccc(F)cc2n1 test_value=-6.01
compound=Cn1cccc1C(=O)NCc1cnc2n1CCN(C(=O)N1CCCC1)C2 test_value=-5.61
compound=CS(=O)(=O)c1ccc(NC(=O)NC2(c3ccccc3)CCC2)cc1 test_value=5.64
compound=Cc1ccccc1C1(CNC(=O)c2ccc(S(C)(=O)=O)cc2)CC1 test_value=-7.16

Consider O=C(NCCCOCc1ccco1)c1cccnc1N1CCOCC1 . Its measured cytotoxicity at 10 µM is -8.5

The compound identified as O=C1NCC2(CCCN(C(=O)c3ccc4c(c3)CCCO4)CC2)O1 (centres undefined) registered its cytotoxicity at 10 µM at -19.7

Measured cytotoxicity at 10 µM of O=C(CN1CCCC(c2ncc[nH]2)C1)NCC(F)(F)F (centres undefined) : 9.37

get_value(item= CN(CCOc1ccc(C#N)cc1)CC1CC1 , readout=cytotoxicity at 10 µM) returns 1.47

Lab book: cytotoxicity at 10 µM of Cc1noc(C2CCN(C(=O)CCc3ccccn3)CC2)n1 noted as -3.25

---

Test: Toxicity liver stage against HepG2, at 10uM
Assay type: cell-based
Parameters: test concentration 10 uM, cell line HepG2-A16-CD81EGFP
Details: human, HepG2-A16-CD81EGFP cells; read-out: INHIBITION
recorded.endpoint: cytotoxicity at 10 µM (%)
Lab book: enter the figure in %, no units written.

Known results for compounds:
compound=CC(C)CNC(=O)CSc1nnc(OC(C)C)s1 test_value=1.97
compound=Cn1c(Cn2ccnc2)nnc1C1CCN(Cc2cccnc2N)CC1 test_value=-8.37
compound=CC(=O)N1CCN(C(=O)CNc2ccc3sccc3c2)CC1 test_value=0.335
compound=O=C(c1ncccn1)N1C[C@H]2CCC[C@@]2(COCc2ccncc2)C1 test_value=-3.08
compound=COc1ccnc(N2C[C@H]3CC[C@@H](C2)N(CC2CCC2)C3=O)n1 test_value=-0.054

Now, please, on to the next compound.
For reference, reported cytotoxicity at 10 µM for CCn1ccnc1CN(C)C1CCCN(CCc2ccccc2)C1 (stereo unspecified) stands at -8.63
